Data provenance: paper PMC2836553

SYSTEM TESTED: T1, XPF-ΔPIP (Δ6 XPF) (Sulfolobus solfataricus, UniProt Q7LXL5 1-227)
T1 sequence: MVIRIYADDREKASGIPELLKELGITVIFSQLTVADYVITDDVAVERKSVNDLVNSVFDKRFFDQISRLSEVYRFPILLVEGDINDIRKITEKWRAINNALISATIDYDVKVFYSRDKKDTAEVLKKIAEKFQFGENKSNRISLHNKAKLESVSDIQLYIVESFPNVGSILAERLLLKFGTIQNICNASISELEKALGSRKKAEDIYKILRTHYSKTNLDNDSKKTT
ASSAY REMARKS: FRET
VALUE TYPE: pKd
In simple prose, pKd is minus the logarithm base ten of a concentration in moles per litre.

Answer with reported pKd of Flap-23 (structured_DNA, 3' Cy3 on B strand; internal fluorescein-dT at T10 of C strand) DNA 1: AGCCCGACAGCAGTCAGAGCTTGCTAGGACGGACGGT DNA 2: ACCGTCCGTCCTAGCAAGCATTTTTTT DNA 3: TCTGACTGCTGTCGGGCT
5.80
